Give measured pKi for each item. Keep answers brief.
Assayed System: 53BP1-BRCT (53BP1 tandem BRCT domains, residues 1702-1972), untagged (human) (UniProt Q12888)
Sequence (Q12888 1702-1972): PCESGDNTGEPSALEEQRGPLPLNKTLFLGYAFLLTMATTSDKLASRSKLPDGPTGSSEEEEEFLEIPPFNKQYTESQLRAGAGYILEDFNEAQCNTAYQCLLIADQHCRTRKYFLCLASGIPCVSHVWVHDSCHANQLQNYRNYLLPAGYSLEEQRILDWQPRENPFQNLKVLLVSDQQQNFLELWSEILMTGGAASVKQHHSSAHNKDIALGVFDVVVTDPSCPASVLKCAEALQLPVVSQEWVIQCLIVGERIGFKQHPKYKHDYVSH
Run Description: fluorescence polarisation
Non-standard residues stand in square brackets, D forms with d. No end group written: not given here. pS = N[C@@H](COP(=O)(O)O)C(=O)O
pKi is defined as minus the log10 of a concentration measured in mol/L.

# input Find the measured pKi of [pS]PTF-OH [phospho-SPTF-OH] and report it.
# output 4.34

# input Find the measured pKi of [pS]QEY-NH2 [phospho-SQEY-NH2] and report it.
# output 4.60

# input Find the measured pKi of [pS]QEY-OH [unlabeled phospho-SQEY-OH tetrapeptide] and report it.
# output 5.12
